List of IC50 tested on Cholinesterase (Homo sapiens, UniProt P06276).
Sequence (P06276 whole entry): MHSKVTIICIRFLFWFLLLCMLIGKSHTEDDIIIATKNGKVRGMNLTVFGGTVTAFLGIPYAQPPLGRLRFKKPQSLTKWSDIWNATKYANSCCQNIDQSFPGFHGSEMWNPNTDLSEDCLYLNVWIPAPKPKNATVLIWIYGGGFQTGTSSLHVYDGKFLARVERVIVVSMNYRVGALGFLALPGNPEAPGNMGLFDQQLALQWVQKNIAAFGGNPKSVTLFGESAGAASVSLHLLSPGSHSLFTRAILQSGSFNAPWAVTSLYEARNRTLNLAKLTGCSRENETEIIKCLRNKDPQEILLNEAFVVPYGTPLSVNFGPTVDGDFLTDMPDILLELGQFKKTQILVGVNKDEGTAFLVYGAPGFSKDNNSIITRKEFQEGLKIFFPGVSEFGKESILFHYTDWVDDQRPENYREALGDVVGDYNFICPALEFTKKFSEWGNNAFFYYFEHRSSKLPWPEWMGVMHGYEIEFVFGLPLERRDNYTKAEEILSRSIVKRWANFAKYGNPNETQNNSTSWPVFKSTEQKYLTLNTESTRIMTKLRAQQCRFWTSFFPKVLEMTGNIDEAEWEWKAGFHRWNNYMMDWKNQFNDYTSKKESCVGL
A number alone suffices; assume µM.

Consider the reported IC50 for these molecules:
COc1cc(-c2ccc(Nc3nc(-c4ccc(Cl)c(Cl)c4)cs3)c(OC)c2)ccc1Nc1nc(-c2ccc(Cl)c(Cl)c2)cs1 110
COc1ccc(OC)c(-c2csc(Nc3ccc(-c4ccc(Nc5nc(-c6cc(OC)ccc6OC)cs5)c(OC)c4)cc3OC)n2)c1 58
COc1cc(-c2ccc(Nc3nc(-c4ccc(Cl)cc4Cl)cs3)c(OC)c2)ccc1Nc1nc(-c2ccc(Cl)cc2Cl)cs1 47.6

// moving on: another record for IC50
Bench note: what IC50 did COc1ccc(-c2csc(Nc3ccc(-c4ccc(Nc5nc(-c6ccc(OC)cc6)cs5)c(OC)c4)cc3OC)n2)cc1 show?
107

----------
target: Cholinesterase (Homo sapiens, UniProt P06276); experiment: Inhibition of BuChE (unknown origin) using butyrylthiocholine iodide as substrate at 80 ug/ml by Ellman spectrophotometric method
Calls of active or inactive are those of the source. No cut-off for these calls is given here.
metric: inhibition

Consider the reported inhibition for these compounds:
COc1cc(-c2ccc(Nc3nc(-c4ccc(Cl)cc4Cl)cs3)c(OC)c2)ccc1Nc1nc(-c2ccc(Cl)cc2Cl)cs1 84.4%
COc1cc(-c2ccc(Nc3nc(-c4ccc([N+](=O)[O-])cc4)cs3)c(OC)c2)ccc1Nc1nc(-c2ccc([N+](=O)[O-])cc2)cs1 27.9%
COc1cc(-c2ccc(Nc3nc(-c4cc(Cl)ccc4Cl)cs3)c(OC)c2)ccc1Nc1nc(-c2cc(Cl)ccc2Cl)cs1 36.2%
COc1ccc(-c2csc(Nc3ccc(-c4ccc(Nc5nc(-c6ccc(OC)cc6)cs5)c(OC)c4)cc3OC)n2)cc1 74.5%
COc1cc(-c2ccc(Nc3nc(-c4ccc(Cl)c(Cl)c4)cs3)c(OC)c2)ccc1Nc1nc(-c2ccc(Cl)c(Cl)c2)cs1 53.5%
COc1cc(-c2ccc(Nc3nc(-c4ccccc4)cs3)c(OC)c2)ccc1Nc1nc(-c2ccccc2)cs1 inactive
COc1cc(-c2ccc(Nc3nc(-c4ccc(Cl)cc4)cs3)c(OC)c2)ccc1Nc1nc(-c2ccc(Cl)cc2)cs1 39.1%
COc1cc(-c2ccc(Nc3nc(-c4ccc(C)cc4)cs3)c(OC)c2)ccc1Nc1nc(-c2ccc(C)cc2)cs1 40.9%

Bench note: what inhibition did COc1cc(-c2ccc(Nc3nc(-c4ccc(Br)cc4)cs3)c(OC)c2)ccc1Nc1nc(-c2ccc(Br)cc2)cs1 show?
inactive

Bench note: what inhibition did COc1cc(-c2ccc(NC(N)=S)c(OC)c2)ccc1NC(N)=S show?
26.7%

Bench note: what inhibition did COc1ccc(OC)c(-c2csc(Nc3ccc(-c4ccc(Nc5nc(-c6cc(OC)ccc6OC)cs5)c(OC)c4)cc3OC)n2)c1 show?
56.9%

----------
biological target: Acetylcholinesterase (Electrophorus electricus)
Sequence (O42275 whole entry): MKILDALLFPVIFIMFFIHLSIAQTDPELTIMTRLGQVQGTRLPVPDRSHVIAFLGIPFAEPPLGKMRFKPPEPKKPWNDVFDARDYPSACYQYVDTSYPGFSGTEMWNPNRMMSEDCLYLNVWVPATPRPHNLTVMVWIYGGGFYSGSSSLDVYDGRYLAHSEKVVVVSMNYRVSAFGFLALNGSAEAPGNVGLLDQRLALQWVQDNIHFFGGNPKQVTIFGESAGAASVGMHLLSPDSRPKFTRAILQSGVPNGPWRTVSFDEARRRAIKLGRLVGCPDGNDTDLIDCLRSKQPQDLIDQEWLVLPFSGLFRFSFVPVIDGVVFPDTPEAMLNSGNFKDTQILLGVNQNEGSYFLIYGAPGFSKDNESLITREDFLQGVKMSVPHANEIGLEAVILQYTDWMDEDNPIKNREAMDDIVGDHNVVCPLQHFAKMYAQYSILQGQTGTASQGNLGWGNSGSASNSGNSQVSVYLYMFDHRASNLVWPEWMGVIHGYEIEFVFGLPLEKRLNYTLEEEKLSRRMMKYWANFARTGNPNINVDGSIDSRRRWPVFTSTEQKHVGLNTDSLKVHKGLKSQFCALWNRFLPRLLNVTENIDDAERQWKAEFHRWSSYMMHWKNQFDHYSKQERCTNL
Please respond with 1 when measured IC50 is strictly beneath 20 µM, and with -1 in all other cases.

Example entries and their recorded answers appear below.
COc1cc(-c2ccc(Nc3nc(-c4ccc(Br)cc4)cs3)c(OC)c2)ccc1Nc1nc(-c2ccc(Br)cc2)cs1 1
COc1cc(-c2ccc(Nc3nc(-c4ccccc4)cs3)c(OC)c2)ccc1Nc1nc(-c2ccccc2)cs1 1
COc1cc(-c2ccc(Nc3nc(-c4ccc(Cl)cc4Cl)cs3)c(OC)c2)ccc1Nc1nc(-c2ccc(Cl)cc2Cl)cs1 1
COc1ccc(OC)c(-c2csc(Nc3ccc(-c4ccc(Nc5nc(-c6cc(OC)ccc6OC)cs5)c(OC)c4)cc3OC)n2)c1 -1
COc1cc(-c2ccc(Nc3nc(-c4ccc(C)cc4)cs3)c(OC)c2)ccc1Nc1nc(-c2ccc(C)cc2)cs1 -1
COc1cc(-c2ccc(Nc3nc(-c4ccc([N+](=O)[O-])cc4)cs3)c(OC)c2)ccc1Nc1nc(-c2ccc([N+](=O)[O-])cc2)cs1 1
COc1cc(-c2ccc(Nc3nc(-c4ccc(Cl)cc4)cs3)c(OC)c2)ccc1Nc1nc(-c2ccc(Cl)cc2)cs1 -1
COc1cc(-c2ccc(Nc3nc(-c4ccc(Cl)c(Cl)c4)cs3)c(OC)c2)ccc1Nc1nc(-c2ccc(Cl)c(Cl)c2)cs1 1
COc1cc(-c2ccc(Nc3nc(-c4cc(Cl)ccc4Cl)cs3)c(OC)c2)ccc1Nc1nc(-c2cc(Cl)ccc2Cl)cs1 -1
COc1ccc(-c2csc(Nc3ccc(-c4ccc(Nc5nc(-c6ccc(OC)cc6)cs5)c(OC)c4)cc3OC)n2)cc1 1

Confirm or reject: IC50 of COc1cc(-c2ccc(NC(N)=S)c(OC)c2)ccc1NC(N)=S lies strictly below 20 µM
-1
